meta.source: PubChem BioAssay (NCI)

Assay: NCI Yeast Anticancer Drug Screen. Data for the rad50 strain (AID 155)
Details: S. cerevisiae rad50 strain growth inhibition; at 50.0 µM; stronger effect = higher value
Experimental: Growth inhibition of yeast strains with defined genetic alterations is measured as a screen for potential anti-cancer activity. Selected strains with alterations in DNA damage repair or cell cycle control were exposed to compounds and growth inhibition was measured relative to vehicle treated controls. The strain used in this assay is rad50
About 79,000 compounds went through this panel and 15% of them were active in at least one assay; those are over-represented in the sample as a whole.
Our labelling divides records by growth inhibition into ranges: lower (below 60%), middle (60% to below 90%), upper (90% or more)

molecule=CN(C)CCn1c2c3ccccc3ccc2c2oc(=O)c3ccccc3c21 answer_label=middle
molecule=NNc1c(F)c(F)cc(F)c1F answer_label=lower
molecule=O=[N+]([O-])c1cccc2nc3ccccc3c(NCCCN3CCOCC3)c12 answer_label=upper
molecule=Cc1ccc(CCC2=CCCc3c2ccc2ccccc32)cc1 answer_label=lower
molecule=COc1ccc(/C=C2\SC(=S)N(/C=C/c3nc4ccccc4[nH]c3=O)C2=O)cc1OC answer_label=lower
molecule="CN1CCc2ccccc2C1Cc1ccccc1NC(=O)c1sc2ccccc2c1Cl (stereo not drawn)" answer_label=upper
molecule=COc1ccc2nc3cccc([N+](=O)[O-])c3c(NCCN(CCO)CCO)c2c1 answer_label=middle
molecule=O=S(=O)(CCCl)c1ccccc1Cl answer_label=upper
molecule=Cc1ccc(S(=O)(=O)NC(=O)NC2=NC(C)(C)N(c3ccc(Cl)c(Cl)c3)C(N)=N2)cc1 answer_label=lower
molecule="Clc1ccc(SC(/C=C/NNC2=NC(c3ccccc3)C(c3ccccc3)=NN2)c2ccccc2)cc1 (stereo not drawn)" answer_label=middle
molecule=N#CSc1ccc(S(N)(=O)=O)cc1 answer_label=lower
molecule=O=C1Nc2ccc(Cl)c(I)c2C1=O answer_label=lower
molecule="Nc1ccn(C2OC(CO)C3[O][Sn]([c]4ccccc4)([c]4ccccc4)[O]C32)c(=O)n1 (stereo not drawn)" answer_label=upper
molecule=CC[n+]1ccc2c(C)c3[nH]c4ccc(O)cc4c3c(C)c2c1 answer_label=middle
molecule=[N-]=[N+]=NC1=C(c2ccccn2)C(=O)c2cccc3cccc1c23 answer_label=middle
molecule=Cc1cc(S(=O)(=O)/N=C(/NN)NNc2cccc(C(F)(F)F)n2)c(S)cc1Cl answer_label=lower
molecule=CN(C)C[C@H]1CC[C@@H](CN(C)C)C1=O answer_label=middle
molecule="C=CC(C)(O)CCC1C(=C)C(O)CC2C(C)(C)CCCC12C (stereo not drawn)" answer_label=middle
molecule=Cc1[nH]c2ccccc2c1C(c1ccc(N)cc1)c1c(C)[nH]c2ccccc12 answer_label=upper
molecule=CC(C)(C)c1nc2c(o1)C(=O)c1ccccc1C2=O answer_label=middle
